Tested on: PXR:RXRa (NR concentration 270 nM, RXRa partner concentration 90 nM)
method: PBM binding z-score (relative to random genomic background probes); higher = stronger binding; sequences stand for … in GC…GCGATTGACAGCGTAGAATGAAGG
Assign class by PBM binding z-score: not lower than 1 means met; lower than 1 means not met.

Assess whether reported PBM binding z-score for "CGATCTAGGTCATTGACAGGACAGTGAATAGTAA" sits at 1 or higher. met

Assess whether reported PBM binding z-score for "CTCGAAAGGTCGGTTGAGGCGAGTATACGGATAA" sits at 1 or higher. met

Assess whether reported PBM binding z-score for "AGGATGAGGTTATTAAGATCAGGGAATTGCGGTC" sits at 1 or higher. met

Assess whether reported PBM binding z-score for "CAAACTAGGTCAAGGTCAAAATCGGTTTGTGCCA" sits at 1 or higher. met

Assess whether reported PBM binding z-score for "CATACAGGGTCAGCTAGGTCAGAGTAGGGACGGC" sits at 1 or higher. met

Assess whether reported PBM binding z-score for "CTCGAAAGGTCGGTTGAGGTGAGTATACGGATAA" sits at 1 or higher. met

Assess whether reported PBM binding z-score for "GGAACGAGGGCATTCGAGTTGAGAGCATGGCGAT" sits at 1 or higher. met

Assess whether reported PBM binding z-score for "TTACCAAGGTGAGCTGAGGTCGTTGGTCCAACTC" sits at 1 or higher. met

Assess whether reported PBM binding z-score for "ACTAGTTGGTCAGCTGAGGTCACACATAATTCGG" sits at 1 or higher. met

Assess whether reported PBM binding z-score for "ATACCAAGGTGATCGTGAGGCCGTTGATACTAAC" sits at 1 or higher. not met

====

System: RARb homodimer (NR concentration 270 nM)
method: PBM binding z-score (relative to random genomic background probes); higher = stronger binding; sequences stand for … in GC…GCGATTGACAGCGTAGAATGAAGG
Assign class by PBM binding z-score: not lower than 3 means met; lower than 3 means not met.

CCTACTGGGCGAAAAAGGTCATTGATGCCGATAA :: met
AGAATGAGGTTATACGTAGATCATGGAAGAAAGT :: not met
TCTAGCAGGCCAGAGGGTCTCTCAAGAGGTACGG :: not met

Assess whether reported PBM binding z-score for "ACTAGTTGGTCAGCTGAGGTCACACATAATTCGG" sits at 3 or higher. met

Assess whether reported PBM binding z-score for "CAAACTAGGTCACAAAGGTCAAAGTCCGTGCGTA" sits at 3 or higher. met

====

Tested on: PPARg:RXRa IVT, anti-PPARg (NR concentration 270 nM, RXRa partner concentration 90 nM)
method: PBM binding z-score (relative to random genomic background probes); higher = stronger binding; sequences stand for … in GC…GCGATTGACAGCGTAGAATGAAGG
metric: PBM binding z-score
API doc: respond with a numeric literal and nothing else, no unit.

Look over these answered cases.
CCTGCTAGGCCATGGTCAGCTAATCTACAGTATG :: 0.103
AATACAGGGTCACTAAGCCAGAGTAGGTACGAAT :: 4.56
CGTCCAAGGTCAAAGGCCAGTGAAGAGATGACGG :: 4.02
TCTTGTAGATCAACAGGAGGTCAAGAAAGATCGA :: 2.17

Then this sequence:
Supply reported PBM binding z-score belonging to this sequence: "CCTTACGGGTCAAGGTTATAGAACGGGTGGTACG" 3.22

====

Overview of recorded PBM binding z-score for various sequences
Tested on: RARb:RXRa (NR concentration 270 nM, RXRa partner concentration 90 nM)
method: PBM binding z-score (relative to random genomic background probes); higher = stronger binding; sequences stand for … in GC…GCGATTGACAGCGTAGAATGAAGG
API doc: respond with a numeric literal and nothing else, no unit.

Look over these answered cases.
TATACAGGGTCAAAGACCAGAGTACGAATGTCGA :: 4.25
ATCGAAAGGTCGAGGTAAGTATAGAGAAAGGGAA :: 4.06
CGAACTAGGTCATCCAGGAGAGTGAATACATTGA :: 3.78

Recall the reported PBM binding z-score of "TGAATGAGGTTATTAGATCAGGGAACGTTGCAAA" on RARb:RXRa (NR concentration 270 nM, RXRa partner concentration 90 nM) and write it down. 1.24

Recall the reported PBM binding z-score of "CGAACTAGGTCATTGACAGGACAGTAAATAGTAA" on RARb:RXRa (NR concentration 270 nM, RXRa partner concentration 90 nM) and write it down. 3.81

Recall the reported PBM binding z-score of "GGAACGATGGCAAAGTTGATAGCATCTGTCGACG" on RARb:RXRa (NR concentration 270 nM, RXRa partner concentration 90 nM) and write it down. -0.325

Recall the reported PBM binding z-score of "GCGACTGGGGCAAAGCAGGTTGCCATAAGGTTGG" on RARb:RXRa (NR concentration 270 nM, RXRa partner concentration 90 nM) and write it down. 0.412

Recall the reported PBM binding z-score of "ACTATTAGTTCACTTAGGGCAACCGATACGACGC" on RARb:RXRa (NR concentration 270 nM, RXRa partner concentration 90 nM) and write it down. 2.35

Recall the reported PBM binding z-score of "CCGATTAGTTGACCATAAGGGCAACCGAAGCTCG" on RARb:RXRa (NR concentration 270 nM, RXRa partner concentration 90 nM) and write it down. 1.46

====

Overview of recorded PBM binding z-score for various sequences
Test system: THRa:RXRa (NR concentration 90 nM, RXRa partner concentration 90 nM)
method: PBM binding z-score (relative to random genomic background probes); higher = stronger binding; sequences stand for … in GC…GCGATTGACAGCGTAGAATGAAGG
API doc: respond with a numeric literal and nothing else, no unit.

Look over these answered cases.
CGAACGAGGGTATGAGTTGATAGCAAATGCCGAT :: -0.183
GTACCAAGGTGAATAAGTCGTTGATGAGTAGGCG :: 1.21
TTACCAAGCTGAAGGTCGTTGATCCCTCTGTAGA :: 0.571
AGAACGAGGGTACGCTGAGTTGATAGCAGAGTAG :: 0.2

Supply reported PBM binding z-score belonging to this sequence: "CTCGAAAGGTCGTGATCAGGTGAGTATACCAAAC" 4.04

Supply reported PBM binding z-score belonging to this sequence: "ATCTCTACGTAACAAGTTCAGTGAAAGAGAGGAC" 1.07

====

System: PPARg DBDmut:RXRa IVT, anti-PPARg (DBD mutation: PPARg1 K132A/R137A, NR concentration 270 nM, RXRa partner concentration 90 nM)
method: PBM binding z-score (relative to random genomic background probes); higher = stronger binding; sequences stand for … in GC…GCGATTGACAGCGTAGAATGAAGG
Overview of recorded PBM binding z-score for various sequences

Look over these answered cases.
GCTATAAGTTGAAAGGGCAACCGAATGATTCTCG :: 0.223
CTCGACAGGTCGGTTGAGGTGAGTATACGGATAA :: -0.149
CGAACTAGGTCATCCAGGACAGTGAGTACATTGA :: 2.59

Supply reported PBM binding z-score belonging to this sequence: "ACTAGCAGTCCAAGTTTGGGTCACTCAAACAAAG" -0.264

Supply reported PBM binding z-score belonging to this sequence: "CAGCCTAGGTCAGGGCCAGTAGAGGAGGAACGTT" -1.47

Supply reported PBM binding z-score belonging to this sequence: "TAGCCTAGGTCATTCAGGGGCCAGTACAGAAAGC" -0.186

====

Overview of recorded PBM binding z-score for various sequences
Test system: RARg:RXRa (NR concentration 270 nM, RXRa partner concentration 90 nM)
method: PBM binding z-score (relative to random genomic background probes); higher = stronger binding; sequences stand for … in GC…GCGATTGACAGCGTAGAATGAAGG
API doc: respond with a numeric literal and nothing else, no unit.

Look over these answered cases.
ATATGTAGGTTAGCTGCGGTCATTCAGACTAGGC :: 1.43
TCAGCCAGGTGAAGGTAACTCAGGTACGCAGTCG :: 0.119
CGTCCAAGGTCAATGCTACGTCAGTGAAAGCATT :: 5.67
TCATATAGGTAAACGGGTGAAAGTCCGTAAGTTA :: 0.423

Supply reported PBM binding z-score belonging to this sequence: "ACTAGTTGGTCAGCTGAGTTCACACACAATTCGG" 1.78

Supply reported PBM binding z-score belonging to this sequence: "ATATGTACGTTATCGGGTCATTCAGTTTGCGCAT" 2.06

Supply reported PBM binding z-score belonging to this sequence: "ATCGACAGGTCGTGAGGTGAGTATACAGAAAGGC" 2.07

Supply reported PBM binding z-score belonging to this sequence: "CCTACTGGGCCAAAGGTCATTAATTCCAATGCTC" 5.3

Supply reported PBM binding z-score belonging to this sequence: "ACTCGGAGGAAAAAGGTCAGAGCTACGCCAGTGA" 4.09
